# Test system: HepG2
# test details: Cytotoxicity against human HepG2 cells after 48 hrs by MTT assay
# Format: functional, cell-based
# measurement context: HepG2, 48 h
pIC50: −log10 of the molar value.
Decision: pIC50 >= 5 yields Y, all other cases yield N.

Please review the entries below; each comes with its answer.
# chem smiles, assigned class
data = [
    ("COc1cc([C@@H]2c3cc4c(cc3[C@H](OC(=O)NS(=O)(=O)N3CCN(c5ccc([N+](=O)[O-])cc5)CC3)[C@H]3COC(=O)[C@H]23)OCO4)cc(OC)c1OC", "Y"),
    ("COc1cc([C@@H]2c3cc4c(cc3[C@H](OC(=O)NS(=O)(=O)N3CCN(C)CC3)[C@H]3COC(=O)[C@H]23)OCO4)cc(OC)c1OC", "Y"),
    ("CCCNS(=O)(=O)NC(=O)O[C@H]1c2cc3c(cc2[C@@H](c2cc(OC)c(OC)c(OC)c2)[C@H]2C(=O)OC[C@@H]21)OCO3", "Y"),
    ("COc1cc([C@@H]2c3cc4c(cc3[C@H](OC(=O)NS(=O)(=O)NC3CCN(C)CC3)[C@H]3COC(=O)[C@H]23)OCO4)cc(OC)c1OC", "N"),
    ("COc1cc([C@@H]2c3cc4c(cc3[C@H](OC(=O)NS(=O)(=O)N3CCOCC3)[C@H]3COC(=O)[C@H]23)OCO4)cc(OC)c1OC", "Y"),
]

Now, please, on to the next compound.
input: Is it the case that `COc1cc([C@@H]2c3cc4c(cc3[C@H](OC(=O)NS(=O)(=O)NC3CCCCC3)[C@H]3COC(=O)[C@H]23)OCO4)cc(OC)c1OC` has pIC50 reaching or exceeding 5?
output: Y

----------
# System: HCT-8
# test details: Cytotoxicity against human HCT8 cells after 48 hrs by MTT assay
# Assay type: functional, cell-based
# measurement context: HCT-8, 48 h
measured metric: IC50 (µM)
Numeric answer only, unit µM assumed.

In the examples that follow, each entry is paired with its recorded IC50.
# compound, system, IC50, µM
records = [
    ("COc1cc([C@@H]2c3cc4c(cc3[C@H](OC(=O)NS(=O)(=O)NC3CCN(C)CC3)[C@H]3COC(=O)[C@H]23)OCO4)cc(OC)c1OC", "HCT-8", 96),
    ("COc1cc([C@@H]2c3cc4c(cc3[C@H](OC(=O)NS(=O)(=O)NC3CCCCC3)[C@H]3COC(=O)[C@H]23)OCO4)cc(OC)c1OC", "HCT-8", 20.1),
    ("COc1cc([C@@H]2c3cc4c(cc3[C@H](OC(=O)NS(=O)(=O)N3CCOCC3)[C@H]3COC(=O)[C@H]23)OCO4)cc(OC)c1OC", "HCT-8", 16.5),
    ("COc1cc([C@@H]2c3cc4c(cc3[C@H](OC(=O)NS(=O)(=O)NC3CC3)[C@H]3COC(=O)[C@H]23)OCO4)cc(OC)c1OC", "HCT-8", 45),
    ("COc1cc([C@@H]2c3cc4c(cc3[C@@H](O[C@@H]3O[C@@H]5CO[C@@H](C)O[C@H]5[C@H](O)[C@H]3O)[C@H]3COC(=O)[C@H]23)OCO4)cc(OC)c1O [ETOPOSIDE]", "HCT-8", 26.3),
]

input: Query (compound): `CCCNS(=O)(=O)NC(=O)O[C@H]1c2cc3c(cc2[C@@H](c2cc(OC)c(OC)c(OC)c2)[C@H]2C(=O)OC[C@@H]21)OCO3` ; field requested: IC50
output: 23.2
